# ASSAY_METHOD_TEXT: Clearance in Sprague-Dawley rat at 30 mg/kg, po and 5 mg/kg, iv
# Format: ADME, organism-based
# TEST_CONTEXT: in vivo
ENDPOINT: clearance (mL/min/kg)

(P) COCCCc1ccc(Cl)c(CN(C(=O)[C@H](CN)Cc2ccc(CCCOc3c(Cl)cc(C)cc3Cl)cc2)C2CC2)c1
(Q) COCCCc1cc(CN(C(=O)[C@@H](CN)Cc2ccc(CCCOc3c(Cl)cc(C)cc3Cl)cc2)C2CC2)cc(OCCOC)c1
Looking at P and Q , which one comes out lower in clearance terms? Please respond with the label that marks your chosen entry.
Q

---

# ASSAY_METHOD_TEXT: Half life in Sprague-Dawley rat at 30 mg/kg, po and 5 mg/kg, iv
# Assay type: ADME, organism-based
# TEST_CONTEXT: in vivo
ENDPOINT: half-life (min)

(A) COCCCc1cc(CN(C(=O)[C@@H](CN)Cc2ccc(CCCOc3c(Cl)cc(C)cc3Cl)cc2)C2CC2)cc(OCCOC)c1
(B) COCCCc1ccc(Cl)c(CN(C(=O)[C@H](CN)Cc2ccc(CCCOc3c(Cl)cc(C)cc3Cl)cc2)C2CC2)c1
Which entry has a larger number for half-life, A or B ? Please respond with the label that marks your chosen entry.
B

---

# TEST_SYSTEM: Renin (Homo sapiens, UniProt P00797)
# Sequence (P00797 whole entry): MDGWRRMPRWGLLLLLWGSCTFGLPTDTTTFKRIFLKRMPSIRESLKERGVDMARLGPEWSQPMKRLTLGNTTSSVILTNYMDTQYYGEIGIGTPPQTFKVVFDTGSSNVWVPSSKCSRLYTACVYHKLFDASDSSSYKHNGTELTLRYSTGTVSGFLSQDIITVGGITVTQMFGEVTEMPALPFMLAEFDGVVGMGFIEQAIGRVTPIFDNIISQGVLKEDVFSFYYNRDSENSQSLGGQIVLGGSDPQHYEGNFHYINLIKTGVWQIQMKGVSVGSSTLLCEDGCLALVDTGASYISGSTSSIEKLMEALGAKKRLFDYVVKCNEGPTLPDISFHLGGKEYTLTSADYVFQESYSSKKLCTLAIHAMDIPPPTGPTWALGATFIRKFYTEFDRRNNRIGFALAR
# ASSAY_METHOD_TEXT: Inhibition of human recombinant renin in PBS buffer at pH 7.4
ENDPOINT: IC50 (pM)

Some compounds with known IC50 results, for comparison:
compound="COCCCc1cc(Cl)c(Cl)c(CN(C(=O)C(CN)Cc2ccc(CCCOc3c(Cl)cc(C)cc3Cl)cc2)C2CC2)c1 (stereo not drawn)" number=260
compound="COCCc1ccc(Cl)c(CN(C(=O)C(CN)Cc2ccc(CCCOc3c(Cl)cc(C)cc3Cl)cc2)C2CC2)c1 (stereo not drawn)" number=190

(1) Cc1cc(Cl)c(OCCCc2ccc(CC(CN)C(=O)N(Cc3cc(CCC#N)ccc3Cl)C3CC3)cc2)c(Cl)c1 (stereo not drawn)
(2) Cc1cc(Cl)c(OCCCc2ccc(CC(CN)C(=O)N(Cc3cccc(Cl)c3Cl)C3CC3)cc2)c(Cl)c1 (stereo not drawn)
(3) COCCCc1ccc(Cl)c(CN(C(=O)[C@H](CN)Cc2ccc(CCCOc3c(Cl)cc(C)cc3Cl)cc2)C2CC2)c1
(4) NCC(Cc1ccc(CCCOc2c(F)ccc(F)c2Cl)cc1)C(=O)N(Cc1cccc(Cl)c1Cl)C1CC1 (racemic)
(5) Cc1cc(Cl)c(OCCCc2ccc(CC(CN)C(=O)N(Cc3cc(CCCN(C)C)ccc3Cl)C3CC3)cc2)c(Cl)c1 (stereo not drawn)
Exam item: list the entries in increasing order of IC50. List the labels according to the requested ordering.
3, 1, 2, 4, 5
